These entries and their values trace back to patent US10494332B2.

Target: TcPTP (Homo sapiens)
Sequence (P17706 1-415): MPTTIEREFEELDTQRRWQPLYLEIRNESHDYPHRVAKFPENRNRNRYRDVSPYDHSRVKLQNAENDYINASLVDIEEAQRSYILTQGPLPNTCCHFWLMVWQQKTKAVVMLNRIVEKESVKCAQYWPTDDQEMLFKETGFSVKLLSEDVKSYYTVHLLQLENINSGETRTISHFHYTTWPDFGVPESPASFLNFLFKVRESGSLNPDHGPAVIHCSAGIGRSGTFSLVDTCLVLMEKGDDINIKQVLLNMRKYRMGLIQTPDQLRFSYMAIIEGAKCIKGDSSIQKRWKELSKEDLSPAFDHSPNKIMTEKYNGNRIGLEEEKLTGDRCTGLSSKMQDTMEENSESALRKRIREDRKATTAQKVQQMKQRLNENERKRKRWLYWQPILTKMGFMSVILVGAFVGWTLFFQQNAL
Assay: PTP inhibition assay (pNPP)
Format: biochemical
Details: pNPP at Km, pH 7.0, 25° C.; read-out: IC50 TcPTP
Each entry below carries its recorded IC50.

In the examples that follow, each entry is paired with its recorded IC50.
>  <Compound>
O=C(Nc1cnc2ccccc2c1)C(c1ccccc1)S(=O)(=O)O (centres unmarked) [Compound L319M88]

>  <IC50>
> 200 µM

$$$$
>  <Compound>
O=C(CS(=O)(=O)O)Nc1cnc2ccccc2c1

>  <IC50>
> 100 µM

$$$$
>  <Compound>
O=C(C(c1ccccc1)S(=O)(=O)O)N1CCC(c2ccc(Cl)c(Cl)c2)CC1 (centres unmarked) [Compound L319N47]

>  <IC50>
160 µM

$$$$

IN: For the compound O=C(Nc1ccc(OCc2ccccc2)c(Cl)c1)C(c1ccccc1)S(=O)(=O)O (centres unmarked) [Compound L319M50] , what IC50 is on record?
OUT: > 100 µM

IN: For the compound O=C(NCCNC(=O)C(c1ccccc1)S(=O)(=O)O)c1cccc(C(=O)c2ccccc2)c1 (centres unmarked) [Compound L319-02-A60] , what IC50 is on record?
OUT: > 200 µM

IN: For the compound O=C(C(c1ccccc1)S(=O)(=O)O)N1CCC(Cc2ccccc2)CC1 (centres unmarked) [Compound L319N46] , what IC50 is on record?
OUT: > 200 µM

IN: For the compound O=C(Nc1nc2ccccc2s1)C(c1ccccc1)S(=O)(=O)O (centres unmarked) [Compound L319N15] , what IC50 is on record?
OUT: > 200 µM

IN: For the compound O=C(CS(=O)(=O)O)Nc1nc2ccc([N+](=O)[O-])cc2s1 [Compound L335N15-07] , what IC50 is on record?
OUT: > 100 µM

IN: For the compound O=C(NCc1ccc(NC(=O)C(c2ccccc2)S(=O)(=O)O)cc1)c1ccccc1-c1ccc(C(F)(F)F)cc1 (centres unmarked) [Compound L319-05-A64] , what IC50 is on record?
OUT: 96 µM

IN: For the compound O=C(Nc1cccc(OCc2ccccc2)c1)C(=O)Nc1ccccc1NC(=O)C(c1ccccc1)S(=O)(=O)O (centres unmarked) [Compound L319-21-M52] , what IC50 is on record?
OUT: > 50 µM

IN: For the compound O=C(Nc1ccc(N2CCOCC2)cc1)C(c1ccccc1)S(=O)(=O)O (centres unmarked) [Compound L319M68] , what IC50 is on record?
OUT: > 200 µM

====

target: mPTPB (Mycobacterium tuberculosis, UniProt I6WXK4); assay: biochemical; settings: Biochemical potency against target (Ic50, nM) mPTPB
Sequence (I6WXK4 whole entry): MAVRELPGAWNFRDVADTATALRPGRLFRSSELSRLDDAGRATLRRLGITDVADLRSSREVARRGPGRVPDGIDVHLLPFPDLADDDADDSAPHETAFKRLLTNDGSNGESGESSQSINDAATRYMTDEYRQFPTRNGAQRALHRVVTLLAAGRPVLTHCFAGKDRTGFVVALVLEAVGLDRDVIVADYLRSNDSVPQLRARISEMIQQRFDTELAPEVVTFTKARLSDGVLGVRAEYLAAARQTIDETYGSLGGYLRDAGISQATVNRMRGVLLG
Experimental Endpoint: IC50 (nM)
Answer format: numeric, nM implied, no suffix.

In the examples that follow, each entry is paired with its recorded IC50.
>  <Compound>
O=C(C(c1ccccc1)S(=O)(=O)O)N1CCC(Cc2ccccc2)CC1 (stereo not shown) [Compound L319N46]

>  <IC50, nM>
60

$$$$
>  <Compound>
O=C(C(c1ccccc1)S(=O)(=O)O)N1CCC(c2ccc(Cl)c(Cl)c2)CC1 (stereo not shown) [Compound L319N47]

>  <IC50, nM>
9

$$$$

Moving on to another compound below.
IN: // fetch mPTPB (Mycobacterium tuberculosis, UniProt I6WXK4) IC50 for O=C(C(c1ccccc1)S(=O)(=O)O)N1CCCC2CCCCC21 (stereo not shown) [Compound L319N53]
OUT: 20

====

Target chain: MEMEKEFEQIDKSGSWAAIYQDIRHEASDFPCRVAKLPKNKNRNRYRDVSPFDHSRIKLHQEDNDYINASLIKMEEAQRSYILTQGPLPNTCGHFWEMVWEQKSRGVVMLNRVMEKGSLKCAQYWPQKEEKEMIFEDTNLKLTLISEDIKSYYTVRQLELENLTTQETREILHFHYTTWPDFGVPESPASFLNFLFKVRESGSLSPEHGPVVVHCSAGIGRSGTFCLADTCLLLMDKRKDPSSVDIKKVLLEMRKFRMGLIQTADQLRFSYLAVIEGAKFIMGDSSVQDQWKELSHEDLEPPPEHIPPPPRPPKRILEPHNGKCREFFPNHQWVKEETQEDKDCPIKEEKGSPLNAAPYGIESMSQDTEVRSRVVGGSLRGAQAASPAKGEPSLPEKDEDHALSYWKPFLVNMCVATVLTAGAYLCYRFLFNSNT
Experimental Endpoint: IC50

IN: For the compound `Cc1c(Br)cc(NC(=O)CS(=O)(=O)O)cc1Br` , what IC50 is on record?
OUT: > 100 µM

IN: For the compound O=C(Nc1nc2ccc(OC(F)(F)F)cc2s1)C(c1ccccc1)S(=O)(=O)O (centres unmarked) , what IC50 is on record?
OUT: 160 µM

IN: For the compound O=C(Nc1ccc2nc(C(F)(F)F)[nH]c2c1)C(c1ccccc1)S(=O)(=O)O (centres unmarked) , what IC50 is on record?
OUT: > 200 µM

IN: For the compound O=C(Nc1ccc(-c2ccccc2)cc1)C(c1ccccc1)S(=O)(=O)O (centres unmarked) , what IC50 is on record?
OUT: > 200 µM

IN: For the compound O=C(Nc1nc2ccccc2s1)C(c1ccccc1Cl)S(=O)(=O)O (centres unmarked) , what IC50 is on record?
OUT: > 100 µM

IN: For the compound O=C(Nc1nc2ccccc2s1)C(c1ccccc1F)S(=O)(=O)O (centres unmarked) , what IC50 is on record?
OUT: > 100 µM

IN: For the compound `O=C(CS(=O)(=O)O)Nc1nc2ccc([N+](=O)[O-])cc2s1` , what IC50 is on record?
OUT: > 100 µM

IN: For the compound O=C(NCc1ccc(NC(=O)C(c2ccccc2)S(=O)(=O)O)cc1)c1ccccc1-c1ccc(C(F)(F)F)cc1 (centres unmarked) , what IC50 is on record?
OUT: 183 µM

====

Target: UniProt:Q05209
Sequence (Q05209 1-780): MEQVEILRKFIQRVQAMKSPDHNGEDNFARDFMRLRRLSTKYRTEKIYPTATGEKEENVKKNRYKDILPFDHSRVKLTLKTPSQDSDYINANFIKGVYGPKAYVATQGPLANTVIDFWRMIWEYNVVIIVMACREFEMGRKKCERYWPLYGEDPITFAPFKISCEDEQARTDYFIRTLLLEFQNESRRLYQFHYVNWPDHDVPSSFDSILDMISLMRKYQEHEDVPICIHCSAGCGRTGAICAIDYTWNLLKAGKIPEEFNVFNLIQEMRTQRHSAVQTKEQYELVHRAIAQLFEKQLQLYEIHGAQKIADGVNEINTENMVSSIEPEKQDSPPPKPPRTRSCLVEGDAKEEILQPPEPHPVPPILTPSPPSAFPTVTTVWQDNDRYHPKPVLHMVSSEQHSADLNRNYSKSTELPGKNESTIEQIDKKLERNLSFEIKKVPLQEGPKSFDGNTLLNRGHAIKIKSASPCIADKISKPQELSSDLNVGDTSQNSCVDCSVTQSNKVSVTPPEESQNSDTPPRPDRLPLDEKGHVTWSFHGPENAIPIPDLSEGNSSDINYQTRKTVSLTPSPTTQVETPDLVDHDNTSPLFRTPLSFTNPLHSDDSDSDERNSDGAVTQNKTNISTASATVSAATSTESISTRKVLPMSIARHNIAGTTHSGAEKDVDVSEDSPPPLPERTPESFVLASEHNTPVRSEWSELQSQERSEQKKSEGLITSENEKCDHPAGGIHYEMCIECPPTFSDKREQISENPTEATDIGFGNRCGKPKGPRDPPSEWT
Assay: PTP inhibition assay (pNPP)
Format: biochemical
Details: IC50 PEST
Experimental Endpoint: pIC50
# pIC50: negative log10 of molar concentration; output just the value

>  <Molecule>
Cc1c(Br)cc(NC(=O)C(c2ccccc2)S(=O)(=O)O)cc1Br (stereo not drawn)

>  <Target Of Assay>
UniProt:Q05209

>  <Quantitative Result>
4.37

$$$$

Moving on to another molecule below.
IN: For the molecule O=C(Nc1ccc(-c2ccccc2)cc1)C(c1ccccc1)S(=O)(=O)O (stereo not drawn) , what pIC50 is on record?
OUT: 4.22
